Cited source: patent US8901295B2

- assayed system: Cyclophilin D (CypD) (Homo sapiens, UniProt P30405, K175I)
- Sequence (P30405 30-207 K175I limits assumed): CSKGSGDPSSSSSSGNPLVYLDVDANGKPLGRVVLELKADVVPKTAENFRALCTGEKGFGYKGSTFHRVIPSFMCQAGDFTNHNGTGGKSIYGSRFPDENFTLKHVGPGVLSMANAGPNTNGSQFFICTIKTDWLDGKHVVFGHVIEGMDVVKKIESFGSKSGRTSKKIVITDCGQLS
- test: Cyclophilin PPIase enzymatic assay (chymotrypsin coupled), CypD
- Type: biochemical
Recorded inhibition at 100 µM by entry

- compound: "CCOC(=O)CNC(=O)NCc1ccc(O)c(O)c1"
  inhibition at 100 µM / %: 25.5
- compound: "COc1ccc(N(C)C(=O)CNC(=O)NCc2ccc(N)cc2)cc1"
  inhibition at 100 µM / %: 26.1
- compound: "Nc1ccc(CNC(=O)NCC(=O)N2CCOC(CN3C(=O)c4ccccc4C3=O)C2)cc1 (stereo not drawn)"
  inhibition at 100 µM / %: 20.9
